- MEASUREMENT_TARGET: T1, PC2, P16519
- T1 chain: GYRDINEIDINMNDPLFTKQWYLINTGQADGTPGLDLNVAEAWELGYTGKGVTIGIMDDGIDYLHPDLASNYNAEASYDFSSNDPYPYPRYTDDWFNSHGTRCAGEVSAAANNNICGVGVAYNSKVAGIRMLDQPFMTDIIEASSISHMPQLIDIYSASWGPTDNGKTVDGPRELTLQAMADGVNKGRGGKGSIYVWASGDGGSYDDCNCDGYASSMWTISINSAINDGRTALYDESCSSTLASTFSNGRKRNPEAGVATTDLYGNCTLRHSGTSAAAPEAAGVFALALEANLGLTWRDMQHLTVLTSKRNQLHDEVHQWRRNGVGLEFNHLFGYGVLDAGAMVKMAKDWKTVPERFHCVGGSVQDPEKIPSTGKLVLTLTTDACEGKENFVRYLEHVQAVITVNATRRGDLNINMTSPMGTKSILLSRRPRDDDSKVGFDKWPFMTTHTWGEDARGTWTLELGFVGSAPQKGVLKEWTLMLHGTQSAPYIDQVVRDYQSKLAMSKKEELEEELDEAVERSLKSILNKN
- CONDITION_LABEL: modification not given
MEASURED_PARAMETER: Ki (µM)
Enter your answer as a number in µM; do not include the unit.

Q: Fill in the blank: the reported Ki of Ac-MRKRRR-NH2 [Ac-MRKRRR-NH2] is ____.
A: 1500

Source of measurements: patent US7033991
